- studyTarget: Coagulation factor X/antithrombin III (Homo sapiens) (UniProt P01008+P00742)
- measurementNotes: Inhibition of human antithrombin 3/factor 10a assessed as 125 x 10^-6M CBS31.39 substrate hydrolysis at 1 x 10^-3M
- Type: protein-complex assay
measurementName: inhibition (%)

{"compoundSmiles": "C[C@H]1O[C@@H](OC[C@@H]2O[C@H](Oc3c(-c4ccc(OS(=O)(=O)O)c(OS(=O)(=O)O)c4)oc4cc(OS(=O)(=O)O)cc(OS(=O)(=O)O)c4c3=O)[C@@H](OS(=O)(=O)O)[C@H](OS(=O)(=O)O)[C@H]2OS(=O)(=O)O)[C@@H](OS(=O)(=O)O)[C@@H](OS(=O)(=O)O)[C@@H]1OS(=O)(=O)O", "measurementName": "inhibition", "unitInfo": "%", "value": 20.7}
{"compoundSmiles": "C[C@H]1O[C@@H](OC[C@@H]2O[C@H](Oc3c(-c4ccc(OCCOS(=O)(=O)O)c(OCCOS(=O)(=O)O)c4)oc4cc(OCCOS(=O)(=O)O)cc(O)c4c3=O)[C@@H](OS(=O)(=O)O)[C@H](OS(=O)(=O)O)[C@H]2OS(=O)(=O)O)[C@@H](OS(=O)(=O)O)[C@@H](OS(=O)(=O)O)[C@@H]1OS(=O)(=O)O", "measurementName": "inhibition", "unitInfo": "%", "value": 24.8}
{"compoundSmiles": "COc1ccc([C@@H]2CC(=O)c3c(O)cc(O[C@@H]4O[C@H](CO[C@@H]5O[C@@H](C)[C@H](OS(=O)(=O)O)[C@@H](OS(=O)(=O)O)[C@H]5OS(=O)(=O)O)[C@@H](OS(=O)(=O)O)[C@H](OS(=O)(=O)O)[C@H]4OS(=O)(=O)O)cc3O2)cc1O", "measurementName": "inhibition", "unitInfo": "%", "value": 46.2}
{"compoundSmiles": "COc1ccc(-c2cc(=O)c3c(O)cc(O[C@@H]4O[C@H](CO[C@@H]5O[C@@H](C)[C@H](OS(=O)(=O)O)[C@@H](OS(=O)(=O)O)[C@H]5OS(=O)(=O)O)[C@@H](OS(=O)(=O)O)[C@H](OS(=O)(=O)O)[C@H]4OS(=O)(=O)O)cc3o2)cc1O", "measurementName": "inhibition", "unitInfo": "%", "value": 38.7}
